Where do the numbers come from? From patent US7109243B2.

# STUDY_TARGET: Cathepsin S (Homo sapiens, UniProt P25774)
# Sequence (P25774 115-331, species assumed): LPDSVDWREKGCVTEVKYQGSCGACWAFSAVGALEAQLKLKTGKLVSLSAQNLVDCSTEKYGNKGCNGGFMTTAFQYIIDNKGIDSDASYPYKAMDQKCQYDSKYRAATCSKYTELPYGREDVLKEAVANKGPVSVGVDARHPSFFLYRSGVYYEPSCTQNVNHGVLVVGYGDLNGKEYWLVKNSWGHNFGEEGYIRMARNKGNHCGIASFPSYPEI
# ASSAY_NOTES: Cathepsin S inhibition assay (fluorogenic peptide substrate)
# Type: biochemical
# SETTINGS: Table II, compounds of Formula I; read-out: Ki Cat. S

{"MOLECULE": "COc1ccc(NCCNC(=O)[C@H](Cc2ccc([N+](=O)[O-])cc2)NC(=O)c2cccc(C)c2)cc1 [Compound 244]", "Ki": "< 1000 nM"}
{"MOLECULE": "O=C(N[C@@H](CC1CCCCC1)C(=O)NCCNc1ccc(OC(F)(F)F)cc1)c1onc2ccccc12 [Compound 59]", "Ki": "< 1000 nM"}
{"MOLECULE": "COc1ccc(NCCNC(=O)[C@H](Cc2cccc3ccccc23)NC(=O)c2cccc(C)c2)cc1 [Compound 258]", "Ki": "< 100 nM"}
{"MOLECULE": "CC(=O)N1CCC(C(=O)N[C@@H](CC2CCCCC2)C(=O)NCCNc2ccc(OC(F)(F)F)cc2)CC1 [Compound 14]", "Ki": "< 1000 nM"}
{"MOLECULE": "COc1ccc(NCCNC(=O)[C@H](Cc2ccccc2)NC(=O)Nc2ccc(Oc3ccccc3)cc2)cc1 [Compound 89]", "Ki": "< 1000 nM"}
{"MOLECULE": "O=C(N[C@@H](CC1CCCCC1)C(=O)NCCNc1ccc(F)cc1)c1cscn1 [Compound 314]", "Ki": "< 100 nM"}
{"MOLECULE": "O=C(Cc1ccccc1F)N[C@@H](CC1CCCCC1)C(=O)NCCNc1ccc(F)cc1 [Compound 306]", "Ki": "< 100 nM"}
{"MOLECULE": "COc1ccc(NCCNC(=O)[C@H](Cc2ccccc2)NC(=O)c2cc(C)c(C)cc2C)cc1 [Compound 30]", "Ki": "< 100 nM"}

###

# STUDY_TARGET: Cathepsin K (Homo sapiens)
# Sequence (P43235 115-329, species assumed): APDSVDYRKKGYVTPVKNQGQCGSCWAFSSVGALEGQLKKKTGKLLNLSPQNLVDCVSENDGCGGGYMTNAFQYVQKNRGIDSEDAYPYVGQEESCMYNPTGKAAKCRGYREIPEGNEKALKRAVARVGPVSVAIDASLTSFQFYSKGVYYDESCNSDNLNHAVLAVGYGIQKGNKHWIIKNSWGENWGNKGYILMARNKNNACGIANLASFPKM
# ASSAY_NOTES: Cathepsin K inhibition assay (fluorogenic peptide substrate); selectivity ratio vs cathepsin S
# Type: biochemical
# SETTINGS: ratio of cathepsin K inhibition constant to cathepsin S inhibition constant; Table II

{"COMPOUND": "COc1ccc(NCCNC(=O)[C@H](CCC2CCCCC2)NC(=O)c2ccc(OCc3ccccc3)cc2)cc1", "Selectivity for Cat. S over Cat. K": "+ (+, >10)"}
{"COMPOUND": "O=C(N[C@@H](CC1CCCCC1)C(=O)NCCNc1ccc(OC(F)(F)F)cc1)C1CN(Cc2ccccc2)CCO1 (stereo partly shown)", "Selectivity for Cat. S over Cat. K": "+ (+, >10)"}
{"COMPOUND": "O=C(N[C@@H](CC1CCCCC1)C(=O)NCCNc1ccc(OC(F)(F)F)cc1)c1ccc(-c2cnco2)cc1", "Selectivity for Cat. S over Cat. K": "+ (+, >10)"}

###

Each item that follows carries a reported pKi.
# STUDY_TARGET: UniProt P25774
# ASSAY_NOTES: Cathepsin S inhibition assay (fluorogenic peptide substrate)
# Type: biochemical
# SETTINGS: Table II, compounds of Formula I; read-out: Ki Cat. S
pKi: −log10 of the molar value.
METRIC: pKi

{"COMPOUND": "COc1ccc(NCCNC(=O)C(NC(=O)c2cccc(C)c2)c2ccc(Cl)cc2)cc1 (racemic) [Compound 8]", "OBSERVED_VALUE": "> 7.00"}
{"COMPOUND": "COc1ccc(NCCNC(=O)[C@H](Cc2ccc(Oc3ccc(N(C)C)cc3)cc2)NC(=O)c2cccc(C)c2)cc1 [Compound 33]", "OBSERVED_VALUE": "> 5.00"}
{"COMPOUND": "COc1ccc(NCCNC(=O)[C@H](CC2CCCCC2)NC(=O)c2cccc(-c3ccc(Cl)cc3)c2)cc1 [Compound 175]", "OBSERVED_VALUE": "> 7.00"}
{"COMPOUND": "O=C(N[C@@H](CC1CCCCC1)C(=O)NCCNc1ccc(F)cc1)c1ccc(-c2ccc(F)cc2)o1 [Compound 322]", "OBSERVED_VALUE": "> 7.00"}
{"COMPOUND": "COc1ccc(NCCNC(=O)[C@H](CC2CCCCC2)NC(=O)c2cc(C)ccc2Cl)cc1 [Compound 148]", "OBSERVED_VALUE": "> 7.00"}
{"COMPOUND": "COc1ccc(NCCNC(=O)[C@H](CCC2CCCCC2)NC(=O)c2cccc(-c3csc(C)n3)c2)cc1 [Compound 142]", "OBSERVED_VALUE": "> 7.00"}
{"COMPOUND": "COc1ccc(NCCNC(=O)[C@H](Cc2ccccc2)NC(=O)c2ccncc2)cc1 [Compound 64]", "OBSERVED_VALUE": "> 5.00"}
{"COMPOUND": "O=C(N[C@@H](CC1CCCCC1)C(=O)NCCNc1ccc(OC(F)(F)F)cc1)c1ccc(Oc2ccccc2)cc1 [Compound 141]", "OBSERVED_VALUE": "> 7.00"}
{"COMPOUND": "COc1ccc(NCCNC(=O)[C@H](CC2CCCCC2)NC(=O)c2cccc(C(F)(F)F)c2)cc1 [Compound 106]", "OBSERVED_VALUE": "> 7.00"}
{"COMPOUND": "O=C(N[C@@H](CC1CCCCC1)C(=O)NCCNc1ccc(OC(F)(F)F)cc1)c1cccc(CN2CCOCC2)c1 [Compound 200]", "OBSERVED_VALUE": "> 7.00"}
{"COMPOUND": "COc1ccc(NCCNC(=O)[C@H](CCCC2CCCCC2)NC(=O)c2cccc(C)c2)cc1 [Compound 203]", "OBSERVED_VALUE": "> 7.00"}
{"COMPOUND": "O=C(N[C@@H](CC1CCCCC1)C(=O)NCCNc1ccc(OC(F)(F)F)cc1)C1CC(=O)N(Cc2ccco2)C1 (stereo partly drawn) [Compound 39]", "OBSERVED_VALUE": "> 6.00"}
{"COMPOUND": "COc1ccc(NCCNC(=O)[C@H](CCC2CCCCC2)NC(=O)c2ccc3ncsc3c2)cc1 [Compound 137]", "OBSERVED_VALUE": "> 7.00"}
{"COMPOUND": "COc1ccc(NCCNC(=O)[C@H](Cc2ccc(C(C)(C)C)cc2)NC(=O)c2cccc(C)c2)cc1 [Compound 255]", "OBSERVED_VALUE": "> 6.00"}
{"COMPOUND": "O=C(N[C@@H](CC1CCCCC1)C(=O)NCCNc1ccc(OC(F)(F)F)cc1)c1ccc(-n2cncn2)cc1 [Compound 221]", "OBSERVED_VALUE": "> 7.00"}
